src = paper PMC7926627

# system: hBChE (Homo sapiens, UniProt P06276, N45Q/N483Q/N509Q/N514Q)
# Construct: made in house
# Sequence (P06276 29-557 N45Q/N483Q/N509Q/N514Q limits assumed): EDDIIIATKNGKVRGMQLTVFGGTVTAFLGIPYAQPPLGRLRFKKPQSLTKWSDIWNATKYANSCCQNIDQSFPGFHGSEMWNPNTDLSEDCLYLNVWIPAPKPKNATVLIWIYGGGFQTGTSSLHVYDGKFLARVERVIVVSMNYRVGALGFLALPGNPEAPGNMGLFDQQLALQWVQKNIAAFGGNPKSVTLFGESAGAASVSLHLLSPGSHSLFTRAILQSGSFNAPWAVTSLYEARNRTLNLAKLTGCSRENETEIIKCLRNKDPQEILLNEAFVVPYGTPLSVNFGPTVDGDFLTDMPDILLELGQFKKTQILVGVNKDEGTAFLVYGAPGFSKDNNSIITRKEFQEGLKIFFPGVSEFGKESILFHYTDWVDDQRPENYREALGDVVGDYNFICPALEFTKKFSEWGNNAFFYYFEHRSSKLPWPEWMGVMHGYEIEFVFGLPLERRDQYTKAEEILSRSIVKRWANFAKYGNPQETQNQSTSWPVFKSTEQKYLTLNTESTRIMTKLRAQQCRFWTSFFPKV
# procedure.summary: Recombinant hBChE inhibition, Ellman's buffer
# Assay type: biochemical
measure.name: SI (2): hBChE selectivity index = IC50(hAChE)/IC50(hBChE)
Reply with just the number.

## Input Could you share which SI (2): hBChE selectivity index = IC50(hAChE)/IC50(hBChE) value was measured for `O=C(/C=C/C=C/c1ccc(O)c(O)c1)NCCCCCC[P+](c1ccccc1)(c1ccccc1)c1ccccc1.[Br-]` ?
## Output 0.39

## Input Next up: `O=C(/C=C/C=C/c1ccc2c(c1)OCO2)NCCCC[P+](c1ccccc1)(c1ccccc1)c1ccccc1.[Br-]`
## Output 55

## Input Next up: `O=C(/C=C/C=C/c1ccc2c(c1)OCO2)NCCCCCC[P+](c1ccccc1)(c1ccccc1)c1ccccc1.[Br-]`
## Output 0.67

## Input Next up: `O=C(/C=C/C=C/c1ccc(O)c(O)c1)NCCCC[P+](c1ccccc1)(c1ccccc1)c1ccccc1.[Br-]`
## Output 7.3

###

# system: hMAO-A (Homo sapiens)
# Construct: purchased Sigma Aldrich; host or cells: insect cells (BTI-TN-5B1-4), baculovirus
# Sequence (P21397 1-527): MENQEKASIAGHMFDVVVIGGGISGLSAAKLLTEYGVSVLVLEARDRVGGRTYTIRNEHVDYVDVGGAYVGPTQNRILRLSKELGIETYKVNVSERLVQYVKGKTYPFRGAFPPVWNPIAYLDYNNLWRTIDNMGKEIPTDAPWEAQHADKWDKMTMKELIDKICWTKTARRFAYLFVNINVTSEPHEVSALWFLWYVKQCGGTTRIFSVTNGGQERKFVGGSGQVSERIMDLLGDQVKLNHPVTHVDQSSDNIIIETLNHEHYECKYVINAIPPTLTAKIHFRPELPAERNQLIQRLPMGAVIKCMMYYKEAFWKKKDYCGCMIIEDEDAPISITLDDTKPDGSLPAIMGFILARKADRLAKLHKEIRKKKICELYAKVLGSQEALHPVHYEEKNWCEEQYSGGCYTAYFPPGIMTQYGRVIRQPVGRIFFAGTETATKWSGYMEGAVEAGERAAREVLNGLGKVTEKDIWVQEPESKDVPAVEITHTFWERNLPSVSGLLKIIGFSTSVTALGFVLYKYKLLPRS
# procedure.summary: hMAO-A inhibition, kynuramine substrate
# Assay type: biochemical
Recorded pIC50, one value per entry.
# log scale: pIC50 equals minus log10 of the concentration in mol/L

Below, 3 molecules whose answers are already recorded.
O=C(/C=C/C=C/c1ccc(O)c(O)c1)NCCCCCC[P+](c1ccccc1)(c1ccccc1)c1ccccc1.[Br-] [Compound 5]	5.66
O=C(/C=C/C=C/c1ccc(O)c(O)c1)NCCCC[P+](c1ccccc1)(c1ccccc1)c1ccccc1.[Br-] [Compound 4]	5.29
O=C(/C=C/C=C/c1ccc2c(c1)OCO2)NCCCC[P+](c1ccccc1)(c1ccccc1)c1ccccc1.[Br-] [Compound 2]	6.05

Consider the additional molecule presented here.
## Input Could you share which pIC50 value was measured for O=C(/C=C/C=C/c1ccc2c(c1)OCO2)NCCCCCC[P+](c1ccccc1)(c1ccccc1)c1ccccc1.[Br-] [Compound 3] ?
## Output 5.91
